Tested on: Wolbachia pipientis
Test name: Anti-Wolbachia Cell-Based Screen
Format: functional
Parameters: scale not given: in the data most compounds retested in dose-response had high values
Run parameters: 5 µM
Screen size: about 48,000 compounds; about 13,000 (27%) showed an effect of 50% or more. The list shows a part of the results.
Assay metric: Percent Effect (%)

Molecule: CCOC1CCCN(C(=O)c2[nH]nc(C(C)C)c2Br)C1 (stereo unspecified)
Tested system: Wolbachia pipientis
Unit descriptor: %
Quantitative result: -3.012

Molecule: O=C(c1cnccn1)N1CCCC2(CCCN2Cc2cccnc2)C1 (stereo unspecified)
Tested system: Wolbachia pipientis
Unit descriptor: %
Quantitative result: 8.648

Molecule: NC(=O)C1(c2cnccn2)CCCN1Cc1ccc(Cl)cc1 (stereo unspecified)
Tested system: Wolbachia pipientis
Unit descriptor: %
Quantitative result: 127.2

Molecule: CCNc1ncc(C(=O)NCc2csc(C)n2)cn1
Tested system: Wolbachia pipientis
Unit descriptor: %
Quantitative result: -20.21

Molecule: CC(C)CN1CCS(=O)(=O)[C@@H]2CCN(S(=O)(=O)CC(C)C)CC[C@@H]21.O=C(O)C(F)(F)F
Tested system: Wolbachia pipientis
Unit descriptor: %
Quantitative result: -0.8095

Molecule: COCCc1noc(CNC(=O)C2CC(=O)N(C(C)(C)C)C2)n1 (stereo unspecified)
Tested system: Wolbachia pipientis
Unit descriptor: %
Quantitative result: -10.49

Molecule: O=C(NCC1CCCCC1)N1C[C@H]2C[C@H](C(=O)N3CCOCC3)[C@@H](C1)O2
Tested system: Wolbachia pipientis
Unit descriptor: %
Quantitative result: -10.09

Molecule: CC(C)CS(=O)(=O)N1C[C@H]2C[C@H](C(=O)N3CCOCC3)[C@@H](C1)O2
Tested system: Wolbachia pipientis
Unit descriptor: %
Quantitative result: 113.5

Molecule: CC(C)CS(=O)(=O)N1C[C@H]2C[C@H](C(=O)N(C)C)[C@@H](C1)O2
Tested system: Wolbachia pipientis
Unit descriptor: %
Quantitative result: 117.8

Molecule: CCc1nc(CNC(C)(CO)C2CCCCC2)no1 (stereo unspecified)
Tested system: Wolbachia pipientis
Unit descriptor: %
Quantitative result: 105.4

Molecule: Cl.Cl.O[C@@H]1C[C@@](CNCc2cccc(Cl)c2)(COc2cnccn2)C[C@@H]1O
Tested system: Wolbachia pipientis
Unit descriptor: %
Quantitative result: -20.67

Molecule: CCC(=O)N1CCCC(C(=O)NCc2noc(Cc3ccccc3)n2)C1 (stereo unspecified)
Tested system: Wolbachia pipientis
Unit descriptor: %
Quantitative result: 1.423

Molecule: Fc1ccccc1-c1noc2c1CN(CC1CC1)CC2
Tested system: Wolbachia pipientis
Unit descriptor: %
Quantitative result: -13.76

Molecule: O=C(O)C1(Cc2ccc(Cl)cc2)CCN(c2ncccc2F)CC1
Tested system: Wolbachia pipientis
Unit descriptor: %
Quantitative result: 4.468

Molecule: CCOc1ccccc1NC(=O)CN(C)Cc1ccccc1Cl
Tested system: Wolbachia pipientis
Unit descriptor: %
Quantitative result: 6.554

Molecule: Cc1cnc(N2C[C@H]3C[C@H](C(=O)N4CCN(C)CC4)N(C)[C@H]3C2)nc1.O=C(O)C(F)(F)F.O=C(O)C(F)(F)F.O=C(O)C(F)(F)F
Tested system: Wolbachia pipientis
Unit descriptor: %
Quantitative result: 1.417

Molecule: CC(=O)N1CCCC(C(=O)NCc2noc(Cc3ccccc3)n2)C1 (stereo unspecified)
Tested system: Wolbachia pipientis
Unit descriptor: %
Quantitative result: 10.7

Molecule: NC(=O)C1(c2cnccn2)CCCN1Cc1ccncc1 (stereo unspecified)
Tested system: Wolbachia pipientis
Unit descriptor: %
Quantitative result: 100.7

Molecule: NC(=O)C1(c2cnccn2)CCCN1Cc1cccc(Cl)c1 (stereo unspecified)
Tested system: Wolbachia pipientis
Unit descriptor: %
Quantitative result: 110.7

Molecule: Cc1ccc(CN2CCCC2(C(N)=O)c2cnccn2)c(C)c1 (stereo unspecified)
Tested system: Wolbachia pipientis
Unit descriptor: %
Quantitative result: 148.6

Molecule: CCc1nc(CNc2ccc(-c3nc(C4CC4)no3)cn2)no1
Tested system: Wolbachia pipientis
Unit descriptor: %
Quantitative result: -0.6483

Cited source: ChEMBL document CHEMBL3988442
